Data provenance is patent US9550811B2.

# TARGET_OR_SYSTEM: HLA-A3 (Homo sapiens)
# Sequence (P04439 25-299): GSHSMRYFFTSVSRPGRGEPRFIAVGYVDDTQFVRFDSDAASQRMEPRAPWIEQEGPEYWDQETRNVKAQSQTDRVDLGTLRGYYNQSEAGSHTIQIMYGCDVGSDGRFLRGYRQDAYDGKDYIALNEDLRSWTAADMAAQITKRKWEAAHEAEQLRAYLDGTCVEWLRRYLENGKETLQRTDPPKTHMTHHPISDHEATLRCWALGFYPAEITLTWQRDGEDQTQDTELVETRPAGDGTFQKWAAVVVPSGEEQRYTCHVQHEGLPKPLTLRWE
# Sequence (P61769 21-119, further chain): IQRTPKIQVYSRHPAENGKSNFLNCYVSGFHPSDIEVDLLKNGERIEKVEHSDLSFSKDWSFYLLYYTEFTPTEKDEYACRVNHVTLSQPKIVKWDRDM
# PROCEDURE_TEXT: REVEAL binding assay
# ASSAY_SETUP: score as percentage of the signal generated by the positive control peptide
Where no end group is shown, it is not given here. [ ]: non-standard residue; d: D form. Cit = NC(=O)NCCC[C@H](N)C(=O)O
Bucketed by reported REVEAL binding score, HLA-type A3, buckets being low = under 3%, middle = from 3% up to 4%, high = 4% and over

>>> assigned_category("GGQIVGGVY")
"middle"
>>> assigned_category("YVTGNIPGS")
"high"
>>> assigned_category("NLGRVIETL")
"low"
>>> assigned_category("GQIVGGVYL")
"high"
>>> assigned_category("TGNLPGCSF")
"middle"
>>> assigned_category("MGYIPLVGA")
"middle"

[ask] Tag the class for IGGNYLIPR
[reply] low

[ask] Tag the class for P[Cit]IGVRAT[Cit]
[reply] low

[ask] Tag the class for QIVGGVYLL
[reply] low

[ask] Tag the class for GNIPGSTYS
[reply] high

[ask] Tag the class for VTGNIPGST
[reply] low

[ask] Tag the class for IVGGVYLLP
[reply] low

[ask] Tag the class for ITFSIYLIV
[reply] low

[ask] Tag the class for LMGYIPLVG
[reply] low

[ask] Tag the class for YIPLVGAPL
[reply] high

[ask] Tag the class for VIRVIAHGL
[reply] high
